measuredOn: UniProt P11474
Sequence (P11474 193-421 limits assumed, species assumed): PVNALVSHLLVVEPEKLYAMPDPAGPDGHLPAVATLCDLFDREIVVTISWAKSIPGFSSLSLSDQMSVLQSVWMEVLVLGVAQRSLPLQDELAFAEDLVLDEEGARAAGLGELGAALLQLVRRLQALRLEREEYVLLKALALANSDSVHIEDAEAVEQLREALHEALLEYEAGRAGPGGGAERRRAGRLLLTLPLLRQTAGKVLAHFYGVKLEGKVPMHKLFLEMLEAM
method: TR-FRET assay (disruption of co-activator peptide binding)
experimentalSetup: 6His-tagged ERR1 LBD, GST-hSRC2 co-activator polypeptide; average of 3 independent experiments
Exam item: assign Yes to entries whose EC50 is below 40 nM and No to entries at or above 40 nM. Note that a value of exactly 40 nM receives No.

Record excerpt, results attached:
>>> cat("C[C@H]1CN(C2=NC(=O)/C(=C/c3ccc4c(cnn4Cc4ccc(Cl)cc4C(F)(F)F)c3)S2)[C@@H](C)CN1")
"Yes"
>>> cat("Cc1nn(Cc2ccc(Cl)cc2C(F)(F)F)c2ccc(/C=C3\\SC(N4CCN[C@H](CO)C4)=NC3=O)cc12")
"Yes"
>>> cat("O=C1N=C(N2CCN[C@@H](CO)C2)S/C1=C\\c1ccc2c(cnn2Cc2ccc(F)cc2C(F)(F)F)c1")
"No"

Bench note: check whether "O=C1N=C(N2CCC(c3nnn[nH]3)CC2)S/C1=C\c1ccc2c(cnn2Cc2ccc(C(F)(F)F)cc2C(F)(F)F)c1" shows EC50 below 40 nM
Yes

Strictly below 40 nM in EC50? "CC(=O)c1cc(Cl)ccc1Cn1ncc2cc(/C=C3\SC(N4CCN(C)CC4)=NC3=O)ccc21"
Yes

Decide: EC50 of "CCOCCN1CCN(C2=NC(=O)/C(=C/c3ccc4c(cnn4Cc4ccc(Cl)cc4C(F)(F)F)c3)S2)CC1" strictly below 40 nM?
No

Quick check: EC50 of "COc1ccc(Cn2ncc3cc(/C=C4\SC(N5CCC[C@@H]5C(=O)O)=NC4=O)ccc32)c(C(F)(F)F)c1" under 40 nM?
Yes
